Answer each item with its documented Mean % Cell Survival.
System: non-senescent control IMR90 ER:RAS cells
Test: Nuclei count (Hoechst, high content imaging) senolytic assay, OIS model, non-senescent control cells
Assay type: cell-based, human
Conditions: Control, log (dose) [M] -6.66, 72 h, mean n=3 (Fig 3C)
Please reply with the bare figure in % and do not write the unit itself.

Entry Cc1c(NC(=O)OC[C@@H]2COCCN2)cn2ncnc(Nc3ccc4c(cnn4Cc4cccc(F)c4)c3)c12.Cl.Cl [BMS 599626 2HCL, BMS 599626 dihydrochloride] ; Mean % Cell Survival = 101.039

Entry CO[C@H]1C[C@H](O[C@H]2CC[C@]3(C)[C@H]4CC[C@]5(C)[C@@H](C6=CC(=O)OC6)CC[C@]5(O)[C@@H]4CC[C@]3(O)C2)O[C@H](C)[C@H]1O[C@@H]1O[C@H](CO)[C@@H](O)[C@H](O)[C@H]1O [Periplocin, periplocin] ; Mean % Cell Survival = 52.7161

Entry C=Cc1c(C)c2cc3nc(cc4[nH]c(cc5nc(cc1[nH]2)C(C)=C5CCC(=O)O)c(CCC(=O)OC)c4C)[C@@]1(C)C3=CC=C(C(=O)OC)[C@H]1C(=O)OC [Verteporfin, verteporfin, reference compound] ; Mean % Cell Survival = 91.0498

Entry CC(C)=CCc1c(O)cc2oc3cc(O)c(O)c(CC=C(C)C)c3c(=O)c2c1O [Gamma mangostin, gamma mangostin] ; Mean % Cell Survival = 93.5698

---

Tested on: non-senescent control IMR90 ER:RAS cells
Test: Nuclei count (Hoechst, high content imaging) senolytic assay, OIS model, non-senescent control cells
Format: cell-based, human
Conditions: Homo sapiens, IMR-90, 72 h, Control, log (dose) [M] -6.66, 72 h, mean n=3 (Fig 3C); read-out: Mean % Cell Survival
Counter-ions that a name gives are not always drawn.
RECORDED METRIC: viability at 0.2188 µM
The number alone won't do; follow it with the unit.

Entry COc1cc(/C=C/C(=O)O[C@H]2CC[C@]34C[C@]35CC[C@]3(C)[C@@H]([C@H](C)CCC=C(C)C)CC[C@@]3(C)[C@@H]5CC[C@H]4C2(C)C)ccc1O [Gamma oryzanol, gamma oryzanol] ; viability at 0.2188 µM = 99.1%

Entry Cc1c(-c2c(F)cc(C(N)=O)c3[nH]c4c(c23)CC[C@H](C(C)(C)O)C4)cccc1-n1c(=O)c2cccc(F)c2n(C)c1=O [BMS 986142] ; viability at 0.2188 µM = 107%

Entry CO[C@H]1C[C@@H]2CC[C@@H](C)[C@@](O)(O2)C(=O)C(=O)N2CCCC[C@H]2C(=O)O[C@H]([C@H](C)C[C@@H]2CC[C@@H](OCCO)[C@H](OC)C2)CC(=O)[C@H](C)/C=C(\C)[C@@H](O)[C@@H](OC)C(=O)[C@H](C)C[C@H](C)/C=C/C=C/C=C/1C [Everolimus, everolimus, reference compound] ; viability at 0.2188 µM = 100%

Entry CO[C@H]1C[C@H](O[C@H]2CC[C@@]3(C)[C@H](CC[C@@H]4[C@@H]3CC[C@]3(C)[C@@H](C5=CC(=O)OC5)[C@@H](OC(C)=O)C[C@]43O)C2)O[C@@H](C)[C@@H]1O [Oleandrin, oleandrin] ; viability at 0.2188 µM = 24.3%

Entry Cc1cc2c(C(C)C)c(O)c(O)c(C=O)c2c(O)c1-c1c(C)cc2c(C(C)C)c(O)c(O)c(C=O)c2c1O [Gossypol, gossypol] ; viability at 0.2188 µM = 146%

Entry COC[C@H]1C[C@@H](c2nc(-c3ccc4c(c3)COc3cc5c(ccc6nc([C@@H]7CC[C@H](C)N7C(=O)[C@@H](NC(=O)OC)C(C)C)[nH]c65)cc3-4)c[nH]2)N(C(=O)[C@H](NC(=O)OC)c2ccccc2)C1 [Velpatasvir, velpatasvir, reference compound] ; viability at 0.2188 µM = 99.9%

Entry O=c1oc2c(O)c(O)cc3c(=O)oc4c(O)c(O)cc1c4c23 [Ellagic acid, ellagic acid] ; viability at 0.2188 µM = 111%

Entry CO[C@H]1C[C@@H]2CC[C@@H](C)[C@@](O)(O2)C(=O)C(=O)N2CCCC[C@H]2C(=O)O[C@H]([C@H](C)C[C@@H]2CC[C@@H](O)[C@H](OC)C2)CC(=O)[C@H](C)/C=C(\C)[C@@H](O)[C@@H](OC)C(=O)[C@H](C)C[C@H](C)/C=C/C=C/C=C/1C [Rapamycin, rapamycin, reference compound] ; viability at 0.2188 µM = 86.6%

Entry C[C@@H]1O[C@@H](O[C@H]2C[C@@H](O)[C@]3(CO)[C@H]4[C@H](O)C[C@]5(C)[C@@H](C6=CC(=O)OC6)CC[C@]5(O)[C@@H]4CC[C@]3(O)C2)[C@H](O)[C@H](O)[C@H]1O [Ouabain, ouabain, reference compound] ; viability at 0.2188 µM = 46.7%

Entry Cc1cnc(C(=O)N[C@H]2CCCCC/C=C\[C@@H]3C[C@@]3(C(=O)NS(=O)(=O)C3CC3)NC(=O)[C@@H]3C[C@@H](Oc4nc5ccccc5c5ccccc45)CN3C2=O)cn1 [Paritaprevir, paritaprevir, reference compound] ; viability at 0.2188 µM = 82.7%

Entry O=c1cc(-c2ccc(O)cc2)oc2cc(O)c(O)c(O)c12 [Scutellarein, scutellarein] ; viability at 0.2188 µM = 109%

Entry COc1cc(O)c2c(=O)cc(-c3ccc(OC)c(-c4c(O)cc(O)c5c(=O)cc(-c6ccc(O)cc6)oc45)c3)oc2c1 [Ginkgetin, ginkgetin] ; viability at 0.2188 µM = 86.2%

Entry CC[C@]1(O)C[C@@H]2CN(CCc3c([nH]c4ccccc34)[C@@](C(=O)OC)(c3cc4c(cc3OC)N(C)[C@H]3[C@@](O)(C(=O)OC)[C@H](OC(C)=O)[C@]5(CC)C=CCN6CC[C@]43[C@@H]65)C2)C1 [Vinblastine sulfate, vinblastine sulfate, reference compound] ; viability at 0.2188 µM = 80.8%

Entry CO[C@H]1C[C@@H]2CC[C@@H](C)[C@@](O)(O2)C(=O)C(=O)N2CCCC[C@H]2C(=O)O[C@H]([C@H](C)C[C@@H]2CC[C@@H](OP(C)(C)=O)[C@H](OC)C2)CC(=O)[C@H](C)/C=C(\C)[C@@H](O)[C@@H](OC)C(=O)[C@H](C)C[C@H](C)/C=C/C=C/C=C/1C [Ridaforolimus, ridaforolimus, reference compound] ; viability at 0.2188 µM = 91.5%

Entry O=c1c(O)c(-c2ccc(O)cc2)oc2c(O)c(O)cc(O)c12 [Herbacetin, herbacetin] ; viability at 0.2188 µM = 93.5%

Entry CO[C@H]1C[C@@H]2CC[C@@H](C)[C@@](O)(O2)C(=O)C(=O)N2CCCC[C@H]2C(=O)O[C@H]([C@H](C)C[C@@H]2CC[C@H](n3cnnn3)[C@H](OC)C2)CC(=O)[C@H](C)/C=C(\C)[C@@H](O)[C@@H](OC)C(=O)[C@H](C)C[C@H](C)/C=C/C=C/C=C/1C [Zotarolimus, zotarolimus, reference compound] ; viability at 0.2188 µM = 99.6%

Entry O=c1c(O)c(-c2ccc(O)cc2O)oc2cc(O)cc(O)c12 [Morin, morin] ; viability at 0.2188 µM = 86.4%
